- Tested on: SW-620 colon
- assay_summary: NCI tumour cell line growth inhibition, 48 h
Exercise: state measured TGI for each of the compounds provided.

Completed entries (count: 3):
>>> df
                                   compound   system_name  recorded_value
0                 Cc1ns/c(=N\C(=S)N(C)C)n1C  SW-620 colon        > 100 µM
1  CCOC(=O)C(Cc1c(-c2[nH]c3ccccc3c2CC(NC(=O)CNC(C)=O)C(=O)OCC)[nH]c2ccccc12)NC(=O)CNC(C)=O (centres undefined)  SW-620 colon        > 100 µM
2  COc1ccc(-c2c(C(C)=O)c(C)n(C3OC(CO)C(O)C(O)C3O)c(=S)c2C#N)cc1 (centres undefined)  SW-620 colon        > 100 µM

Proceed to the following item.
The compound listed as CCCCC(=C=C1CCCCC1O)C1CCCN1C(=O)OC(C)(C)C (centres undefined) has a reported TGI of 35.4 µM
